# Tested on: HeLa S3 cells
# measurement-protocol: HeLa S3 Cell Growth Inhibition Test
# Format: cell-based
# experimental-setup: Homo sapiens, HeLa S3, 72 h, HeLa S3; 72 hours incubation; Neutral Red; read-out: IC50, HeLa S3 cell growth inhibition
pIC50: −log10 of the molar value.
Readings of pIC50 for the listed compounds

compound	measurement-target	pIC50
C=C(CSC(=O)C(C)(O)C12CC/C(C)=C/C(OC3(OC)CCOCC3)C(=O)/C=C/C=C\c3csc(n3)C(C)N(C(=O)C1)[S+]2[O-])C(=O)O (stereo not drawn)	HeLa S3 cells	5.07
COC(=O)NCC(=O)OCSC(=O)C(C)(O)C12CC/C(C)=C/C(OC3CCCCO3)C(=O)/C=C/C=C\c3csc(n3)C(C)N(C(=O)C1)[S+]2[O-] (stereo not drawn)	HeLa S3 cells	7.82
COCCOCCOCC(=O)OCc1oc(=O)oc1CSC(=O)C(C)(O)C12CC/C(C)=C/C(OC3(OC)CCOCC3)C(=O)/C=C/C=C\c3csc(n3)C(C)N(C(=O)C1)[S+]2[O-] (stereo not drawn)	HeLa S3 cells	7.59

====

Readings of MIC for the listed molecules
# Test system: EC: Escherichia coli ATCC 26
# measurement-protocol: Antimicrobial activity by the agar dilution method (MIC)
# Type: cell-based
# experimental-setup: ATCC26; Escherichia coli ATCC 26; agar dilution, pH 7; read-out: minimum inhibitory concentration (MIC), EC

molecule	measurement-target	MIC, µg/mL
COCCOCC(=O)OCc1oc(=O)oc1CSC(=O)C(C)(O)C12CC/C(C)=C/C(OC3CCCCO3)C(=O)/C=C/C=C\c3csc(n3)C(C)N(C(=O)C1)[S+]2[O-] (stereo not shown)	EC: Escherichia coli ATCC 26	2.6
COCCOCCOCC(=O)OCSC(=O)C(C)(O)C12CCC(C)=CC(O)C(=O)C=CC=Cc3csc(n3)C(C)N(C(=O)C1)[S+]2[O-] (stereo not shown)	EC: Escherichia coli ATCC 26	13
COCOCc1oc(=O)oc1CSC(=O)C(C)(O)C12CC/C(C)=C/C(O)C(=O)/C=C/C=C\c3csc(n3)C(C)N(C(=O)C1)[S+]2[O-] (stereo not shown)	EC: Escherichia coli ATCC 26	11
COC(=O)NCC(=O)OCSC(=O)C(C)(O)C12CCC(C)=CC(O)C(=O)C=CC=Cc3csc(n3)C(C)N(C(=O)C1)[S+]2[O-] (stereo not shown)	EC: Escherichia coli ATCC 26	42

====

# Tested on: Sarcoma 180 mouse solid tumor
# measurement-protocol: Antitumor activity against Sarcoma 180 mouse solid tumor
# Type: in vivo, mouse (ddY)
# experimental-setup: Sarcoma-180, iv, 168 h, 16 mg/kg i.v. once, 24 hours after transplant, tumor volume on day 7, read-out: T/C (tumor volume ratio treated/control)
outcome-measure: response vs control in vivo at 16 mg/kg (%)

molecule	endpoint-unit	value-measured
COC1(OC2/C=C(\C)CCC3(C(C)(O)C(=O)SCC4=C(C)OC(C)(C)OC4=O)CC(=O)N(C(C)c4nc(cs4)/C=C\C=C\C2=O)[S+]3[O-])CCOCC1 (stereo not drawn)	%	37
COCCOCCOCC(=O)OCc1oc(=O)oc1CSC(=O)C(C)(O)C12CC/C(C)=C/C(O)C(=O)/C=C/C=C\c3csc(n3)C(C)N(C(=O)C1)[S+]2[O-] (stereo not drawn)	%	27
CC1=CC(O)C(=O)C=CC=Cc2csc(n2)C(C)N2C(=O)CC(C(C)(O)C(=O)SCOC(=O)C(C)(C)NC(=O)OCc3ccccc3)(CC1)[S+]2[O-] (stereo not drawn)	%	21
CC[Si](CC)(CC)OC[C@H]1OC(OCc2oc(=O)oc2CSC(=O)C(C)(O)C23CC/C(C)=C/C(OC4CCCCO4)C(=O)/C=C/C=C\c4csc(n4)C(C)N(C(=O)C2)[S+]3[O-])C[C@@H](O[Si](CC)(CC)CC)[C@@H]1O[Si](CC)(CC)CC (stereo partly drawn)	%	36
COCCOCC(=O)OCc1oc(=O)oc1CSC(=O)C(C)(O)C12CC/C(C)=C/C(OC3CCCCO3)C(=O)/C=C/C=C\c3csc(n3)C(C)N(C(=O)C1)[S+]2[O-] (stereo not drawn)	%	30
COC(=O)[C@H](CCC(=O)OCSC(=O)C(C)(O)C12CCC(C)=CC(O)C(=O)C=CC=Cc3csc(n3)C(C)N(C(=O)C1)[S+]2[O-])NC(=O)[C@H]1O[C@@H]2OC(C)(C)O[C@@H]2[C@H]2OC(C)(C)O[C@H]21 (stereo partly drawn)	%	30
C/C1=C\C(OC2CCCCO2)C(=O)/C=C/C=C\c2csc(n2)C(C)N2C(=O)CC(C(C)(O)C(=O)SCc3oc(=O)oc3COC3C[C@H](O[Si](C)(C)C(C)(C)C)[C@@H](O[Si](C)(C)C(C)(C)C)[C@H](C)O3)(CC1)[S+]2[O-] (stereo partly drawn)	%	37
CCOC(=O)N1CCC2(CC1)OC(=O)C(CSC(=O)C(C)(O)C13CC/C(C)=C/C(OC4CCCCO4)C(=O)/C=C/C=C\c4csc(n4)C(C)N(C(=O)C1)[S+]3[O-])=C(C)O2 (stereo not drawn)	%	29
CC(=O)NCC(=O)OCc1oc(=O)oc1CSC(=O)C(C)(O)C12CC/C(C)=C/C(OC3CCCCO3)C(=O)/C=C/C=C\c3csc(n3)C(C)N(C(=O)C1)[S+]2[O-] (stereo not drawn)	%	40
CC1=C(CSC(=O)C(C)(O)C23CC/C(C)=C/C(OC4CCCCO4)C(=O)/C=C/C=C\c4csc(n4)C(C)N(C(=O)C2)[S+]3[O-])C(=O)OC(C)(C)O1 (stereo not drawn)	%	14
CC1=C(CSC(=O)C(C)(O)C23CC/C(C)=C/C(OC4CCCCO4)C(=O)/C=C/C=C\c4csc(n4)C(C)N(C(=O)C2)[S+]3[O-])C(=O)OC2(CCOCC2)O1 (stereo not drawn)	%	43
COCCOCCOCC(=O)OCc1oc(=O)oc1CSC(=O)C(C)(O)C12CC/C(C)=C/C(OC3CCCCO3)C(=O)/C=C/C=C\c3csc(n3)C(C)N(C(=O)C1)[S+]2[O-] (stereo not drawn)	%	46

====

# Tested on: EH: Enterococcus hirae ATCC 10541
# measurement-protocol: Antimicrobial activity by the agar dilution method (MIC)
# Assay type: cell-based
# experimental-setup: pH 7
outcome-measure: minimum inhibitory concentration (MIC), EH (mg/L)

molecule	endpoint-unit	value-measured
COC(=O)[C@H](CCC(=O)OCSC(=O)C(C)(O)C12CCC(C)=CC(O)C(=O)C=CC=Cc3csc(n3)C(C)N(C(=O)C1)[S+]2[O-])NC(=O)[C@@]12O[C@H]3COC(C)(C)O[C@H]3[C@@H]1OC(C)(C)O2 (stereo partly drawn)	mg/L	23
COC(=O)NCC(=O)OCSC(=O)C(C)(O)C12CCC(C)=CC(O)C(=O)C=CC=Cc3csc(n3)C(C)N(C(=O)C1)[S+]2[O-] (stereo not drawn)	mg/L	1.3
COCCOCC(=O)OCc1oc(=O)oc1CSC(=O)C(C)(O)C12CC/C(C)=C/C(OC3CCCCO3)C(=O)/C=C/C=C\c3csc(n3)C(C)N(C(=O)C1)[S+]2[O-] (stereo not drawn)	mg/L	0.33

====

Readings of pIC50 for the listed compounds
# System: HeLa S3 cells
# measurement-protocol: HeLa S3 Cell Growth Inhibition Test
# Assay type: cell-based
# experimental-setup: Homo sapiens, HeLa S3, 72 h, HeLa S3; 72 hours incubation; Neutral Red; read-out: IC50, HeLa S3 cell growth inhibition
pIC50: −log10 of the molar value.
outcome-measure: pIC50

compound	measurement-target	outcome-measure	value-measured
C=C(CSC(=O)C(C)(O)C12CC/C(C)=C/C(OC3CCCCO3)C(=O)/C=C/C=C\c3csc(n3)C(C)N(C(=O)C1)[S+]2[O-])C(=O)OC (centres unmarked) [Compound 112]	HeLa S3 cells	pIC50	7.19
COC(=O)[C@H](CCC(=O)OCSC(=O)C(C)(O)C12CCC(C)=CC(O)C(=O)C=CC=Cc3csc(n3)C(C)N(C(=O)C1)[S+]2[O-])NC(=O)[C@H]1O[C@@H]2OC(C)(C)O[C@@H]2[C@H]2OC(C)(C)O[C@H]21 (some centres unmarked) [Compound 25]	HeLa S3 cells	pIC50	6.10
COCCOCCOCC(=O)OCc1oc(=O)oc1CSC(=O)C(C)(O)C12CC/C(C)=C/C(O)C(=O)/C=C/C=C\c3csc(n3)C(C)N(C(=O)C1)[S+]2[O-] (centres unmarked) [Compound 101]	HeLa S3 cells	pIC50	7.00
COC(=O)NCC(=O)OCSC(=O)C(C)(O)C12CCC(C)=CC(O)C(=O)C=CC=Cc3csc(n3)C(C)N(C(=O)C1)[S+]2[O-] (centres unmarked) [Compound 17]	HeLa S3 cells	pIC50	7.82
COC(=O)[C@H](CCC(=O)OCSC(=O)C(C)(O)C12CCC(C)=CC(O)C(=O)C=CC=Cc3csc(n3)C(C)N(C(=O)C1)[S+]2[O-])NC(=O)c1ccc(OC(C)=O)cc1 (some centres unmarked) [Compound 26]	HeLa S3 cells	pIC50	7.17
CC1=CC(O)C(=O)C=CC=Cc2csc(n2)C(C)N2C(=O)CC(C(C)(O)C(=O)SCOC(=O)CCNC(=O)[C@@]34O[C@H]5COC(C)(C)O[C@H]5[C@@H]3OC(C)(C)O4)(CC1)[S+]2[O-] (some centres unmarked) [Compound 20]	HeLa S3 cells	pIC50	6.96
CC(=O)NCC(=O)OCc1oc(=O)oc1CSC(=O)C(C)(O)C12CC/C(C)=C/C(O)C(=O)/C=C/C=C\c3csc(n3)C(C)N(C(=O)C1)[S+]2[O-] (centres unmarked) [Compound 97]	HeLa S3 cells	pIC50	6.92
CC(=O)NC(Cc1ccc(OC(C)=O)cc1)C(=O)OCSC(=O)C(C)(O)C12CCC(C)=CC(O)C(=O)C=CC=Cc3csc(n3)C(C)N(C(=O)C1)[S+]2[O-] (centres unmarked) [Compound 29]	HeLa S3 cells	pIC50	6.40
CC1=CC(OC2CCCCO2)C(=O)C=CC=Cc2csc(n2)C(C)N2C(=O)CC(C(C)(O)C(=O)SCOC(=O)C3CCC(C(=O)O)CC3)(CC1)[S+]2[O-] (centres unmarked) [Compound 12]	HeLa S3 cells	pIC50	6.06
COC(=O)OCc1oc(=O)oc1CSC(=O)C(C)(O)C12CC/C(C)=C/C(OC3CCCCO3)C(=O)/C=C/C=C\c3csc(n3)C(C)N(C(=O)C1)[S+]2[O-] (centres unmarked) [Compound 106]	HeLa S3 cells	pIC50	7.96
CC(=O)Oc1ccc(CCC(=O)OCSC(=O)C(C)(O)C23CCC(C)=CC(O)C(=O)C=CC=Cc4csc(n4)C(C)N(C(=O)C2)[S+]3[O-])cc1 (centres unmarked) [Compound 32]	HeLa S3 cells	pIC50	8.89

Entry source: patent US5981558A
